protocol-notes: NCI Yeast Anticancer Drug Screen. Data for the rad50 strain (AID 155);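 further: 0% = growth of vehicle-only cultures of the same strain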
condition-details: S. cerevisiae rad50 strain growth inhibition; at 5.0 µM (retest, dose inferred, filed as 0.5); stronger effect = higher value
This is part of a sample that, as a whole, favours compounds with a hit. Of some 79,000 tested, about 15% had one in any assay.
So I've got a bunch of molecules here, and I need their growth inhibition values.
One number for each entry, in %.

Lab note: each molecule below needs its growth inhibition filled in.
1. NC(=O)N/N=C(/Cc1nc2ccccc2nc1C/C(=N/NC(N)=O)c1cccc2ccccc12)c1cccc2ccccc12
2. CCOC(=O)C(Cc1cc(I)c(Oc2ccc(OC)cc2)c(I)c1)NC(C)=O (stereo not given)

Solution:
[-1, 36]

###

protocol-notes: NCI Yeast Anticancer Drug Screen. Data for the sgs1 mgt1 strain (AID 161);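 further: 0% = growth of cultures given vehicle only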
condition-details: S. cerevisiae sgs1 mgt1 strain, at 50.0 µM (retest, dose inferred, filed as 5.0)
This is part of a sample that, as a whole, favours compounds with a hit. Of some 79,000 tested, about 15% had one in any assay. The source made the active and inactive calls. Cut-off read from the data, not from the text of the source: active = growth inhibition above about 70%; inactive = the rest.
Hi! Could you answer with just one of these? label 1 for active, label 0 for inactive

Take a look at these entries with their results.
molecule: Cn1cnc(=S)c2[nH]cnc21
qualitative-label: label 0

molecule: CCC(=O)Oc1c(Cl)cc(Cl)c(Cl)c1Cl
qualitative-label: label 1

molecule: COc1ccc(-c2cc(C(=O)O)c3cccc(C(F)(F)F)c3n2)cc1
qualitative-label: label 1

molecule: CCNC(=S)NC1CCCCCCCCCCC1
qualitative-label: label 1

molecule: CCCCCCCC/C=C\CCCCCCCC(=O)NCCN(C)C
qualitative-label: label 1

molecule: O=C(NN=C1CCCCC1)c1ccc([N+](=O)[O-])cc1
qualitative-label: label 0

Exercise: What is the recorded call for this molecule in the test? COC(=O)C1c2cc3c(c(O)c2CCC1(C)O)C(=O)c1c(O)cc2c(c1C3=O)OC1OC2(C)C(O)C(N(C)C)C1O (stereo unspecified)
Solution: label 0

Exercise: What is the recorded call for this molecule in the test? Cc1cc(C)n2nc(N)c(C#N)c2c1C#N
Solution: label 0

Exercise: What is the recorded call for this molecule in the test? CC(C)(C)c1ccc(C(C)(C)C)cc1
Solution: label 0

Exercise: What is the recorded call for this molecule in the test? C=C1C(=O)OC2/C=C(\C(=O)O)CC/C=C(\C)CC(OC(=O)/C=C(\C)CC)C12 (stereo unspecified)
Solution: label 1

Exercise: What is the recorded call for this molecule in the test? Cc1ccc(S(=O)(=O)OC2COC3C(OS(=O)(=O)c4ccc(C)cc4)COC23)cc1 (stereo unspecified)
Solution: label 0

Exercise: What is the recorded call for this molecule in the test? CC1=NOC(=O)/C1=C/c1ccc(Cl)c(Cl)c1
Solution: label 0

Exercise: What is the recorded call for this molecule in the test? COc1cc2c(cc1O)CCN[C@@]21CS[C@H]2c3c(OC(C)=O)c(C)c4c(c3C(COC1=O)N1C2C2c3c(cc(C)c(OC)c3O)CC([C@@H]1O)N2C)OCO4 (stereo partly specified)
Solution: label 1

Exercise: What is the recorded call for this molecule in the test? N#CC1Sc2ccccc2N1C(=O)Oc1ccccc1 (stereo unspecified)
Solution: label 1

Exercise: What is the recorded call for this molecule in the test? Oc1ccc(C(O)(c2ccccc2)c2ccccc2)c2ccccc12
Solution: label 1

###

protocol-notes: NCI Yeast Anticancer Drug Screen. Data for the cln2 rad14 strain (AID 165);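 further: 0% = growth equal to vehicle treated cultures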
condition-details: S. cerevisiae cln2 rad14 strain, at 5.0 µM (retest, dose inferred, filed as 0.5)
Experimental: Growth inhibition of yeast strains with defined genetic alterations is measured as a screen for potential anti-cancer activity. Selected strains with alterations in DNA damage repair or cell cycle control were exposed to compounds and growth inhibition was measured relative to vehicle treated controls. The strain used in this assay is cln2 rad14
Compounds without any hit were thinned out: in the full panel of roughly 79,000, 15% have a hit. Active and inactive are the calls of the source. Cut-off read from the data, not from the text of the source: active = growth inhibition above about 70%; inactive = the rest.
Hi! Could you answer with just one of these? active, inactive

compound: Cc1ccc(SCC#CC#CCS(=O)c2ccc(C)cc2)cc1 (stereo unspecified)
qualitative-label: inactive

Exercise: What is the recorded call for this compound in the test? c1ccc(CC(Cc2ccccc2)c2cccnc2)cc1
Solution: inactive

###

protocol-notes: NCI Yeast Anticancer Drug Screen. Data for the mec2-1 strain (AID 157)
condition-details: S. cerevisiae mec2-1 strain, at 50.0 µM (retest, dose inferred, filed as 5.0)
Compounds without any hit were thinned out: in the full panel of roughly 79,000, 15% have a hit. Activity calls are given as the source filed them. Rule as the data show it: active = growth inhibition above about 70%; inactive = the rest.
Hi! Could you answer with just one of these? y = active, n = inactive

Take a look at these entries with their results.
compound: O=S(=O)(/C=C/c1cccnc1)/C=C/c1cccnc1
qualitative-label: n
--
compound: c1ccc(OCCCOc2ccccc2)cc1
qualitative-label: n
--
compound: CCCCN(CCCC)CC(O)c1cc(-c2ccc(Cl)cc2)nc2cc(C)ccc12 (stereo not drawn)
qualitative-label: y
--
compound: O=S(=O)(Nc1ccccc1)c1ccccc1C(O)(c1ccccc1)c1ccccc1
qualitative-label: y
--
compound: CNC(=O)OCc1c(COC(=O)NC)c(-c2ccc(Cl)c(Cl)c2)n2c1Cc1ccccc1C2
qualitative-label: y
--
compound: CCCCCCCC/C=C\CCCCCCCC(=O)NCCN(C)C
qualitative-label: y
--
compound: c1ccc(-c2c3ccccc3cc3ccc4ccccc4c23)nc1
qualitative-label: n
--
compound: CCOC(=O)Cc1csc2[n+]1C(=O)/C(=C\c1cccc(Cl)c1Cl)S2
qualitative-label: n

Exercise: What is the recorded call for this compound in the test? O=[N+]([O-])c1ccc(C2=Nn3c(nnc3-c3ccc(Cl)cc3)SC2)o1
Solution: n

Exercise: What is the recorded call for this compound in the test? COc1ccc2nc3cccc([N+](=O)[O-])c3c(NCCN(C)C)c2c1
Solution: y

Exercise: What is the recorded call for this compound in the test? COc1cc(C)c2sc3ccccc3c(=O)c2c1NCCCN(C)C
Solution: n

Exercise: What is the recorded call for this compound in the test? CCO/N=C1\CCCCC1SS(=O)(=O)O (stereo not drawn)
Solution: n

Exercise: What is the recorded call for this compound in the test? CC1(c2cccs2)C(C#N)(C#N)C1(C#N)C#N
Solution: n

Exercise: What is the recorded call for this compound in the test? C/C(=N\NC(=S)N1CCN(C2CCCCC2)CC1)c1ccccn1
Solution: y

Exercise: What is the recorded call for this compound in the test? Cc1ccc(C(=O)CC(O)(C(F)(F)F)C(F)(F)F)cc1[N+](=O)[O-]
Solution: y

###

protocol-notes: NCI Yeast Anticancer Drug Screen. Data for the cln2 rad14 strain (AID 165);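 further: 0% = growth equal to vehicle treated cultures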
condition-details: S. cerevisiae cln2 rad14 strain, at 50.0 µM (retest, dose inferred, filed as 5.0), stronger effect = higher value
This is part of a sample that, as a whole, favours compounds with a hit. Of some 79,000 tested, about 15% had one in any assay.
value-kind: growth inhibition (%)
Answers are plain numbers, in %.

The following molecules have reported results that may help.
molecule: O=C(CNCc1ccccc1)c1ccc(Cl)cc1
value-kind: growth inhibition
units-of-measure: %
value-observed: -22
--
molecule: COC(C)(C)[C@@H]1CCCN1C1=C(C)C(=O)OC1
value-kind: growth inhibition
units-of-measure: %
value-observed: 99
--
molecule: CC(C)(C)c1ccc(-c2nc3ccccc3c(=O)o2)cc1
value-kind: growth inhibition
units-of-measure: %
value-observed: 40
--
molecule: CC12C=CC(=O)C=C1CCC1C3CCC(O)(C(=O)CO)C3(C)CC(O)C12F (configuration not stated)
value-kind: growth inhibition
units-of-measure: %
value-observed: 35
--
molecule: Cc1nc(N)nc(-c2ccccc2)c1N=Nc1ccc(Cl)cc1
value-kind: growth inhibition
units-of-measure: %
value-observed: 56

Lab note: each molecule below needs its growth inhibition filled in.
1. CCn1c2ccc(N)cc2c2c(N)c(-n3cccc3)ccc21
2. COc1ccc(/C(Cl)=C(\C=O)c2ccc(Cl)cc2)cc1OC
3. Cc1cc(NCCCCCCCNc2cc(C)nc3cc(N)ccc23)c2ccc(N)cc2n1
4. CC(C(=O)c1ccc(Cl)cc1)C1OC(=O)C(Cl)=C1Cl (configuration not stated)
5. Cc1nc(Nc2ccccc2)sc1C(=O)NNc1ccc([N+](=O)[O-])cc1[N+](=O)[O-]

Solution:
1: 50; 2: 49; 3: 45; 4: 43; 5: 14

###

So I've got a bunch of compounds here, and I need their growth inhibition values.
protocol-notes: NCI Yeast Anticancer Drug Screen. Data for the mlh1 rad18 strain (AID 175)
condition-details: S. cerevisiae mlh1 rad18 strain growth inhibition; at 5.0 µM (retest, dose inferred, filed as 0.5); stronger effect = higher value
Compounds without any hit were thinned out: in the full panel of roughly 79,000, 15% have a hit.
Numbers only, in %.

compound: C=C1C(C2(C)C(OC(C)=O)CC(=O)OC(C)(COC(C)=O)C2CC(=O)OC)C(OC=O)C(OC(=O)C(O)C(C)CC)C2(C)C(c3ccoc3)CC(=O)C12O (stereo unspecified)
growth inhibition (%): -2

compound: CC(Nc1ccc(S(=O)(=O)Nc2ncccn2)cc1)c1ccc2cccnc2c1O (stereo unspecified)
growth inhibition (%): 14

compound: COC(=O)/C=C1/OC(c2ccccc2)=C(C)C1=O
growth inhibition (%): 8

Lab note: each compound below needs its growth inhibition filled in.
1. CCCCCCCCCCCCOC(=O)C[N+]1(C)CCCCC1
2. Cc1ccccc1NC(=O)C(=O)C(C#N)c1c(Cl)cccc1Cl (stereo unspecified)
3. COc1ccccc1C(=O)Nc1ccc(Cl)c(C(=O)OC(C)C)c1

Solution:
1. 33
2. 2
3. 15
